Catalogue of GI readings, one per entry.
# Test system: Aspergillus fumigatus
# method: Antifungal activity against Aspergillus fumigatus assessed as lowest dose required to total inhibition of fungal growth
# Format: functional
test_readout: GI (µg/mL)

>>> df
                                   compound            target_desc  assay_value
0  Clc1ccc(C(COc2ccccc2Cl)Cn2ccnc2)c(Cl)c1.O=[N+]([O-])O (stereo not drawn)  Aspergillus fumigatus          100
1  Clc1ccc(OCCC(Cn2ccnc2)c2ccc(Cl)cc2Cl)c(Cl)c1.O=C(O)C(=O)O (stereo not drawn)  Aspergillus fumigatus          100
2  Clc1ccc(C(CCCOc2ccccc2Br)Cn2ccnc2)c(Cl)c1.O=C(O)C(=O)O (stereo not drawn)  Aspergillus fumigatus          100

----------
Recorded GI values for a group of compounds are listed next.
# System: Saprolegnia
# method: Antifungal activity against Saprolegnia species assessed as lowest dose required to total inhibition of fungal growth
# Assay type: functional
test_readout: GI (µg/mL)

>>> print(df.to_string())
                                   compound  target_desc  value_modifier  assay_value
0  Clc1ccc(C(CCOc2ccccc2Br)Cn2ccnc2)c(Cl)c1.O=C(O)C(=O)O (centres undefined)  Saprolegnia               =          100
1  Clc1ccc(OCCC(Cn2ccnc2)c2ccc(Cl)cc2Cl)c(Cl)c1.O=C(O)C(=O)O (centres undefined)  Saprolegnia               =          100
2  Clc1ccc(OCCC(Cn2ccnc2)c2ccc(Cl)cc2Cl)cc1.O=[N+]([O-])O (centres undefined)  Saprolegnia               =           10
3  Clc1ccc(C(COc2ccc(Br)cc2)Cn2ccnc2)c(Cl)c1.O=[N+]([O-])O (centres undefined)  Saprolegnia               =          100
4  Clc1ccc(OCC(Cn2ccnc2)c2ccc(Cl)cc2Cl)c(Cl)c1.O=[N+]([O-])O (centres undefined)  Saprolegnia               >          100
5  Clc1ccc(C(COc2ccccc2Cl)Cn2ccnc2)c(Cl)c1.O=[N+]([O-])O (centres undefined)  Saprolegnia               =          100
6  Fc1ccc(OCCC(Cn2ccnc2)c2ccc(Cl)cc2Cl)cc1.O=C(O)C(=O)O (centres undefined)  Saprolegnia               =           10
7  Clc1ccc(OCC(Cn2ccnc2)c2ccc(Cl)cc2)cc1.O=[N+]([O-])O (centres undefined)  Saprolegnia               =          100
8  Clc1ccc(COC(Cn2ccnc2)c2ccc(Cl)cc2Cl)c(Cl)c1 (centres undefined)  Saprolegnia               =           10

----------
# Tested on: Candida albicans
# method: Antifungal activity against Candida albicans assessed as lowest dose required to total inhibition of fungal growth
# Assay type: functional
Some compounds, each annotated with its measured GI.
test_readout: GI

>>> print(df.to_string())
                                   compound  assay_value
0  Fc1ccc(OCCCC(Cn2ccnc2)c2ccc(Cl)cc2Cl)cc1.O=C(O)C(=O)O (stereo not drawn)   >100 µg/mL
1  Clc1ccc(C(CCOc2ccccc2Cl)Cn2ccnc2)c(Cl)c1.O=C(O)C(=O)O (stereo not drawn)   >100 µg/mL
2  Clc1ccc(C(CCOc2ccc(Br)cc2)Cn2ccnc2)c(Cl)c1.O=[N+]([O-])O (stereo not drawn)    <10 µg/mL
